# ASSAY TARGET: T1, recombinant purified human IL-12 p70 (human, UniProt P29459 23-219)
# T1 construct: Disulfide-linked heterodimer of p35 and p40; also called hIL-12; Hu IL-12
# T1 sequence 1: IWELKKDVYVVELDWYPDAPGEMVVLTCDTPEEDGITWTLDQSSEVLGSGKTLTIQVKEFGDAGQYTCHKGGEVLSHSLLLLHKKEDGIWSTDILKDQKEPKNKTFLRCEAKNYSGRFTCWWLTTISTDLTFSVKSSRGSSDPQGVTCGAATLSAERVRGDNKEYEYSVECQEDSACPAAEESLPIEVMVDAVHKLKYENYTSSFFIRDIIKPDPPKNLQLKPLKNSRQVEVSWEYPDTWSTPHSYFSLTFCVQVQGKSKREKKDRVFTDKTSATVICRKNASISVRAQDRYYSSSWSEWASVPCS
# T1 sequence 2: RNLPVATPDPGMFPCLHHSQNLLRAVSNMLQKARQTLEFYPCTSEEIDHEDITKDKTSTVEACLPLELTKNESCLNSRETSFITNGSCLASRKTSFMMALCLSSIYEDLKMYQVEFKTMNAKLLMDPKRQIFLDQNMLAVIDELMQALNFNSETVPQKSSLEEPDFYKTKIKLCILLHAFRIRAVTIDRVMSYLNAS
# EXPERIMENT: SPR (Biacore), mAb captured on anti-mouse IgG Fc, IL-12 p70 as analyte
# Experimental: The BIACORE assay (Biacore, Inc, Piscataway, N.J.) determines the affinity of antibodies with kinetic measurements of on-, off-rate constants. Binding of antibodies to recombinant purified human IL-12 p70 or recombinant purified human IL-12 p40 were determined by surface plasmon resonance-based measurements with a Biacore® 3000 instrument (Biacore® AB, Uppsala, Sweden) using running HBS-EP (10 mM HEPES [pH 7.4], 150 mM NaCl, 3 mM EDTA, and 0.005% surfactant P20) at 25° C. […]
REPORTED PROPERTY: koff (s⁻¹)

murine anti-human IL-12p40 monoclonal antibody 8E1 (antibody, V domains shown, Murine mAb; also called biotinylated 8E1) VH: EVKLVESGGGLVQPGGSRKLSCAASGFTFSDYGMVWVRQAPGKGLEWVASISSGSSNIYYADTVKGRFTISRDDPNNTLFLQMRSLRSEDTAMYYCARNPYWGQGTTLTVSS VL: DIVMTQSQKFMSTSVGDRVSVTCKASQNVGTNVAWYQQKPGQSPKGLIYSASHRYSGVPDRFAGSGSGTDFTLTISNVQSEDLAEYFCQQYNSYPLTFGGGTKLELKR = 5.1e-05
murine anti-human IL-12p40 monoclonal antibody 4B4 (antibody, V domains shown, Murine mAb) VH: QVTLKESGPGILKPSQTLSLTCSLSGFSLSTSGMGVSWIRQPSGKGLEWLAHIWWDGDSYSNPSLRSRLTISRDTSRNQVFLRIATVDTADTATYYCARRTRVNYAMDYWGQGTSVTVSS VL: SVVMTQTPKFLLVSAGDRVTMTCKASQSVSNDVAWFQQKPGQSPKLLIYYASNRYTGVPDRFTGSGYGTDFTFTISTVQAEDLAVYFCQQDYNSPWTFGGGTKLEIKR = 1.4e-05
murine anti-human IL-12p40 monoclonal antibody 5E8 (antibody, V domains shown, Murine mAb) VH: QIQLVQSGPELKKPGETVKISCKASGYSFTDYSMHWVKQAPGKGLKWMDWINTETGEPTYADDFKGRFAFSLETSASTAYLQINNLKNEDTATYFCSRRRYRAFDYWGQGTTLTVSS VL: SIVMTQSPKFLLVSAGDRVTITCKASQSVSNDVAWYQQKLGQSPKLLIYYASNRYTGVPDRFTGSGYGTDFTFTINTVQAEDLAVYFCQQDYTSPYTFGGGTKLEIQR = 0.0023
murine anti-human IL-12p40 monoclonal antibody 7G3 (antibody, V domains shown, Murine mAb) VH: EVQLQQSGAEFVRSGASVKLSCTASGLNIKDYYIHWVKQRPEQVLDWIGWIDPENGYSEYAPRFQDKATMTADTSSNTAYLHLSSLTSEDTAVYYCNPGELARYFDYWGQGTTLTVSS VL: DIVLSQSPATLSVTPGDSVSLSCRASQSISKNLHWYQQKSHESPRLLIKYTSQSISGIPSRFSGSGSGTDFTLSINSVETEDFGMYFCQQSISWPLTFGAGTKLELKR = 0.00028
